procedureSummary: Antibacterial activity against Bacillus anthracis Ames NR-3838 by two fold serial dilution method
Type: functional, Bacillus anthracis str. Ames
Non-standard residues stand in square brackets, D forms with d. Residues, ends and D or L forms follow the SMILES beside them. ξ: configuration not given here. Ac6c = NC1(C(=O)O)CCCCC1; Ac5c = NC1(C(=O)O)CCCC1; ξDab = NCCC(N)C(=O)O
Some compounds, each annotated with its measured MIC.
measure: MIC (µM)

>>> measurement("CC(=O)N[C@@H](CCCCN)C(=O)N[C@@H](CCCCN)C(=O)N[C@@H](CCCCN)C(=O)N[C@@H](CCCCN)C(=O)NCC(=O)N[C@@H](Cc1ccccc1)C(=O)NC1(C(=O)NCC(=O)NC2(C(=O)N[C@@H](CCCCN)C(=O)NC3(C(=O)NCC(=O)NC4(C(=O)N[C@@H](Cc5ccccc5)C(=O)NC5(C(=O)NCC(=O)NC6(C(=O)NCC(=O)N[C@@H](CCCCN)C(=O)NC7(C(N)=O)CCCCC7)CCCCC6)CCCCC5)CCCCC4)CCCCC3)CCCCC2)CCCCC1 (Ac-KKKKGF[Ac6c]G[Ac6c]K[Ac6c]G[Ac6c]F[Ac6c]G[Ac6c]GK[Ac6c]-NH2)")
1.37
>>> measurement("C[C@H]1c2cccc(O)c2C(=O)C2=C(O)[C@]3(O)C(=O)C(C(N)=O)=C(O)[C@@H](N(C)C)[C@@H]3[C@@H](O)[C@@H]21")
0.87
>>> measurement("CC(=O)NCC(=O)N[C@@H](Cc1ccccc1)C(=O)NC1(C(=O)NCC(=O)NC2(C(=O)N[C@@H](CCCCN)C(=O)NC3(C(=O)NCC(=O)NC4(C(=O)N[C@@H](Cc5ccccc5)C(=O)NC5(C(=O)NCC(=O)NC6(C(=O)NCC(=O)N[C@@H](CCCCN)C(=O)NC7(C(=O)N[C@@H](CCCCN)C(=O)N[C@@H](CCCCN)C(=O)N[C@@H](CCCCN)C(=O)N[C@@H](CCCCN)C(N)=O)CCCC7)CCCCC6)CCCC5)CCCCC4)CCCC3)CCCCC2)CCCC1 (Ac-GF[Ac5c]G[Ac6c]K[Ac5c]G[Ac6c]F[Ac5c]G[Ac6c]GK[Ac5c]KKKK-NH2)")
22.4
>>> measurement("CC(=O)NCC(=O)N[C@@H](Cc1ccccc1)C(=O)NC1(C(=O)NCC(=O)N2Cc3ccccc3CC2C(=O)N[C@H](CCCCN)C(=O)NC2(C(=O)NCC(=O)N3Cc4ccccc4CC3C(=O)N[C@H](Cc3ccccc3)C(=O)NC3(C(=O)NCC(=O)N4Cc5ccccc5CC4C(=O)NCC(=O)N[C@H](CCCCN)C(=O)N4Cc5ccccc5CC4C(=O)N[C@H](CCCCN)C(=O)N[C@H](CCCCN)C(=O)N[C@H](CCCCN)C(=O)N[C@H](CCCCN)C(N)=O)CCCCC3)CCCCC2)CCCCC1 (stereo partly specified)")
10.3
>>> measurement("CC(=O)NCC(=O)N[C@@H](Cc1ccccc1)C(=O)NC1(C(=O)NCC(=O)NC2(C(=O)NC(CCN)C(=O)NC3(C(=O)NCC(=O)NC4(C(=O)N[C@@H](Cc5ccccc5)C(=O)NC5(C(=O)NCC(=O)NC6(C(=O)NCC(=O)NC(CCN)C(=O)NC7(C(=O)NC(CCN)C(=O)NC(CCN)C(=O)NC(CCN)C(=O)NC(CCN)C(N)=O)CCCCC7)CCCCC6)CCCCC5)CCCCC4)CCCCC3)CCCCC2)CCCCC1 (stereo partly specified) (Ac-GF[Ac6c]G[Ac6c][ξDab][Ac6c]G[Ac6c]F[Ac6c]G[Ac6c]G[ξDab][Ac6c][ξDab][ξDab][ξDab][ξDab]-NH2)")
2.96

---

procedureSummary: Antibacterial activity against Clostridium difficile VIP 10463 ATCC 43255 by two fold serial dilution method
Assay type: functional, Clostridium difficile ATCC 43255
reportedConditions: Clostridioides difficile
Non-standard residues stand in square brackets, D forms with d. Residues, ends and D or L forms follow the SMILES beside them. ξ: configuration not given here. Ac6c = NC1(C(=O)O)CCCCC1; ξDab = NCCC(N)C(=O)O
measure: MIC (µM)

>>> measurement("CC(=O)NCC(=O)N[C@H](Cc1ccccc1)C(=O)NC1(C(=O)NCC(=O)N2C(C(=O)N[C@@H](CCCCN)C(=O)NC3(C(=O)NCC(=O)N4C(C(=O)N[C@@H](Cc5ccccc5)C(=O)NC5(C(=O)NCC(=O)N6C(C(=O)NCC(=O)N[C@@H](CCCCN)C(=O)N7C(C(=O)N[C@H](CCCCN)C(=O)N[C@H](CCCCN)C(=O)N[C@H](CCCCN)C(=O)N[C@H](CCCCN)C(N)=O)CC8CCCCC87)CC7CCCCC76)CCCCC5)CC5CCCCC54)CCCCC3)CC3CCCCC32)CCCCC1 (stereo in doubt)")
2.62
>>> measurement("CC(=O)NCC(=O)N[C@@H](Cc1ccccc1)C(=O)NC1(C(=O)NCC(=O)NC2(C(=O)NC(CCN)C(=O)NC3(C(=O)NCC(=O)NC4(C(=O)N[C@@H](Cc5ccccc5)C(=O)NC5(C(=O)NCC(=O)NC6(C(=O)NCC(=O)NC(CCN)C(=O)NC7(C(=O)NC(CCN)C(=O)NC(CCN)C(=O)NC(CCN)C(=O)NC(CCN)C(N)=O)CCCCC7)CCCCC6)CCCCC5)CCCCC4)CCCCC3)CCCCC2)CCCCC1 (some centres not stated) (Ac-GF[Ac6c]G[Ac6c][ξDab][Ac6c]G[Ac6c]F[Ac6c]G[Ac6c]G[ξDab][Ac6c][ξDab][ξDab][ξDab][ξDab]-NH2)")
2.96

---

procedureSummary: Antibacterial activity against carbapenem-resistant Klebsiella pneumoniae K6 ATCC 700603 by two fold serial dilution method
Type: functional, Klebsiella pneumoniae 700603
Non-standard residues stand in square brackets, D forms with d. Residues, ends and D or L forms follow the SMILES beside them. Ac5c = NC1(C(=O)O)CCCC1
measure: MIC

>>> measurement("CC(=O)NCC(=O)N[C@@H](Cc1ccccc1)C(=O)NC1(C(=O)NCC(=O)NC2(C(=O)N[C@@H](CCCCN)C(=O)NC3(C(=O)NCC(=O)NC4(C(=O)N[C@@H](Cc5ccccc5)C(=O)NC5(C(=O)NCC(=O)NC6(C(=O)NCC(=O)N[C@@H](CCCCN)C(=O)NC7(C(=O)N[C@@H](CCCCN)C(=O)N[C@@H](CCCCN)C(=O)N[C@@H](CCCCN)C(=O)N[C@@H](CCCCN)C(N)=O)CCCC7)CCCC6)CCCC5)CCCC4)CCCC3)CCCC2)CCCC1 (Ac-GF[Ac5c]G[Ac5c]K[Ac5c]G[Ac5c]F[Ac5c]G[Ac5c]GK[Ac5c]KKKK-NH2)")
"> 46 µM"

---

Tested on: Enterococcus faecalis
procedureSummary: Antibacterial activity against Enterococcus faecalis Portland ATCC 29212 by two fold serial dilution method
Type: functional
reportedConditions: ATCC 29212 Portland
Non-standard residues stand in square brackets, D forms with d. Residues, ends and D or L forms follow the SMILES beside them. ξ: configuration not given here. Ac6c = NC1(C(=O)O)CCCCC1; Ac5c = NC1(C(=O)O)CCCC1; ξDab = NCCC(N)C(=O)O
measure: MIC

>>> measurement("CC(=O)NCC(=O)N[C@@H](Cc1ccccc1)C(=O)NC1(C(=O)NCC(=O)NC2(C(=O)N[C@@H](CCCCN)C(=O)NC3(C(=O)NCC(=O)NC4(C(=O)N[C@@H](Cc5ccccc5)C(=O)NC5(C(=O)NCC(=O)NC6(C(=O)NCC(=O)N[C@@H](CCCCN)C(=O)NC7(C(=O)N[C@@H](CCCCN)C(=O)N[C@@H](CCCCN)C(=O)N[C@@H](CCCCN)C(=O)N[C@@H](CCCCN)C(N)=O)CCCC7)CCCCC6)CCCC5)CCCCC4)CCCC3)CCCCC2)CCCC1 (Ac-GF[Ac5c]G[Ac6c]K[Ac5c]G[Ac6c]F[Ac5c]G[Ac6c]GK[Ac5c]KKKK-NH2)")
"> 45 µM"
>>> measurement("CC(=O)NCC(=O)N[C@H](Cc1ccccc1)C(=O)NC1(C(=O)NCC(=O)N2C(C(=O)N[C@@H](CCCCN)C(=O)NC3(C(=O)NCC(=O)N4C(C(=O)N[C@@H](Cc5ccccc5)C(=O)NC5(C(=O)NCC(=O)N6C(C(=O)NCC(=O)N[C@@H](CCCCN)C(=O)N7C(C(=O)N[C@H](CCCCN)C(=O)N[C@H](CCCCN)C(=O)N[C@H](CCCCN)C(=O)N[C@H](CCCCN)C(N)=O)CC8CCCCC87)CC7CCCCC76)CCCCC5)CC5CCCCC54)CCCCC3)CC3CCCCC32)CCCCC1 (stereo in doubt)")
"> 42 µM"
>>> measurement("CC(=O)NCC(=O)N[C@@H](Cc1ccccc1)C(=O)NC1(C(=O)NCC(=O)NC2(C(=O)NC(CCN)C(=O)NC3(C(=O)NCC(=O)NC4(C(=O)N[C@@H](Cc5ccccc5)C(=O)NC5(C(=O)NCC(=O)NC6(C(=O)NCC(=O)NC(CCN)C(=O)NC7(C(=O)NC(CCN)C(=O)NC(CCN)C(=O)NC(CCN)C(=O)NC(CCN)C(N)=O)CCCCC7)CCCCC6)CCCCC5)CCCCC4)CCCCC3)CCCCC2)CCCCC1 (some centres undefined) (Ac-GF[Ac6c]G[Ac6c][ξDab][Ac6c]G[Ac6c]F[Ac6c]G[Ac6c]G[ξDab][Ac6c][ξDab][ξDab][ξDab][ξDab]-NH2)")
"2.96 µM"
>>> measurement("CC(=O)NCC(=O)N[C@@H](Cc1ccccc1)C(=O)NC1(C(=O)NCC(=O)N2Cc3ccccc3CC2C(=O)N[C@H](CCCCN)C(=O)NC2(C(=O)NCC(=O)N3Cc4ccccc4CC3C(=O)N[C@H](Cc3ccccc3)C(=O)NC3(C(=O)NCC(=O)N4Cc5ccccc5CC4C(=O)NCC(=O)N[C@H](CCCCN)C(=O)N4Cc5ccccc5CC4C(=O)N[C@H](CCCCN)C(=O)N[C@H](CCCCN)C(=O)N[C@H](CCCCN)C(=O)N[C@H](CCCCN)C(N)=O)CCCCC3)CCCCC2)CCCCC1 (some centres undefined)")
"> 43 µM"
